Where these numbers come from: patent US20240228562A1

Biological target: T1, Murine CTGF (Mus musculus, UniProt P29268)
T1 construct: purchased Abbexa
T1 sequence (P29268 26-348): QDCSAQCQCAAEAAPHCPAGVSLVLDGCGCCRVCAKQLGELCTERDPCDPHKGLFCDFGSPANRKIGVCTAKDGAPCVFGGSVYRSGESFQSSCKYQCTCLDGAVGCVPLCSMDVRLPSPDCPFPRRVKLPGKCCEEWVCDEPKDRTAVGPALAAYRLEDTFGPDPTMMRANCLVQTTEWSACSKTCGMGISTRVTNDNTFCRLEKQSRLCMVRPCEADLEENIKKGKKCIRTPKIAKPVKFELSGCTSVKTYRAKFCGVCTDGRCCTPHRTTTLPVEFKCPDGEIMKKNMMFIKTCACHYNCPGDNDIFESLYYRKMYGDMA
Test: SPR binding kinetics and affinity, murine CTGF
Parameters: key: B binding without determination of kinetics constants
Details: 25° C., 1:1 binding model
value_kind: Murine CTGF KD

Note to self: Murine CTGF KD recorded for SEQ ID NO: 22: optimized CTGF-binding hNGAL lipocalin mutein (protein, lipocalin mutein) QDSTSDLIPAPPLSKVPLQQNFQDNQFQGKWYVVGIAGNAILRVDKQPAKMFATIYELKEDKSYDVTSVRFEAKSCVYTIKTFVPGSQPGEFTAGNIKSAPGQTSTLVRVVSTNYNQHAMVFFKHVSQNREIFVITLYGRTKELTSELKENFIRFSKSLGLPENHIVFPVPIDQCIDG was B

Note to self: Murine CTGF KD recorded for SEQ ID NO: 17: optimized CTGF-binding hNGAL lipocalin mutein (protein, lipocalin mutein) QDSTSDLIPAPPLSKVPLQQNFQDNQFQGKWYVVGLAGNAILRTDKQPAKMFATIYELKEDKSYDVTSVRFEAKSCVYTSKTFVPGSQPGEFTAGNIKSAPGQTSTLVRVVSTNYNQHAMVFFKHVSQNREFFVITLYGRTKELTSELKENFIRFSKSLGLPENHIVFPVPIDQCIDG was B

Note to self: Murine CTGF KD recorded for SEQ ID NO: 13: optimized CTGF-binding hNGAL lipocalin mutein (protein, lipocalin mutein) QDSTSDLIPAPPLSKVPLQQNFQDNQFQGKWYVVGLAGNAILREDKYPAKMFATIYELKEDKSYDVTSVRFENKSCVYTSKTFVPGSQPGEFTTGNIKSAPGQTSTLVRVVSTNYNQHAMVFFKHVSQNREFFVITLYGRTKELTSELKENFIRFSKSLGLPENHIVFPVPIDQCIDG was B
